Entries and their EC50 values follow.
system under test: human mAChR M1 (Homo sapiens, UniProt P11229)
Construct: host or cells: CHO-K1 cells (ATCC), stably transfected using Lipofectamine2000
Sequence (P11229 whole entry): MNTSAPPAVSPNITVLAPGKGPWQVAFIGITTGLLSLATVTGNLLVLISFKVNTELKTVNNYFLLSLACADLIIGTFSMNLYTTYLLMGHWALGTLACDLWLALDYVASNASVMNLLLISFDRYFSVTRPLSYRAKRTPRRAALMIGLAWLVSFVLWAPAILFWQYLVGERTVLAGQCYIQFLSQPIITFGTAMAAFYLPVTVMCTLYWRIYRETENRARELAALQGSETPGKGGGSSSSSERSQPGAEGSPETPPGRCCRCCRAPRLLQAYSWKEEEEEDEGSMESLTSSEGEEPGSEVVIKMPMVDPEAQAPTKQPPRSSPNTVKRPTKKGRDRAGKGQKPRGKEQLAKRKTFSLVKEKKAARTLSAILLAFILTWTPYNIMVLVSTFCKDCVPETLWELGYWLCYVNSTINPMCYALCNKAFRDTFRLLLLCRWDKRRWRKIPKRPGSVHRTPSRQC
run description: mAChR M1 cell-based functional assay (calcium mobilization), PAM activity: increase in the EC20 acetylcholine response
measurement conditions: CHO-K1 cells expressing hM1; potentiation of EC20 acetylcholine response

Sample answers from the record:
# smiles entry, result
records = [
    ("Cc1cncc(-c2cc(F)c(Cn3cc(C(=O)N[C@H]4CCC[C@@H]4O)c4ncccc4c3=O)c(F)c2)c1", "≥ 10 µM"),
    ("Cn1ccc(-c2ccc(Cn3cc(C(=O)N[C@H]4CCOC[C@@H]4O)c4sccc4c3=O)c(F)c2)n1", "> 10 µM"),
]

Problem: For the compound Cn1ccc(-c2ccc(Cn3cc(C(=O)N[C@H]4CCC[C@@H]4O)c4nccnc4c3=O)c(F)c2)n1 , what EC50 is on record?
Solution: ≥ 10 µM

Problem: Record: Cn1cc(-c2ccc(Cn3cc(C(=O)N[C@H]4CCC[C@@H]4O)c4nccnc4c3=O)c(F)c2)cn1
Solution: ≥ 10 µM

Problem: Record: CC[C@H](C)[C@@H](CO)NC(=O)c1cn(Cc2c(F)cc(-c3cccc4nn(C)cc34)cc2F)c(=O)c2nccnc12
Solution: 4.33 µM

Problem: Record: Cn1cc2c(-c3cc(F)c(Cn4cc(C(=O)N[C@H]5CC[C@@H]5O)c5nccnc5c4=O)c(F)c3)cccc2n1
Solution: 3.89 µM

Problem: Record: Cn1cc(-c2ccc(Cn3cc(C(=O)N[C@H]4CCC[C@@H]4O)c4ncccc4c3=O)cn2)cn1
Solution: ≥ 10 µM
